# protocol.description: Pharmacokinetic measurements in rats (intravenous and intra-tracheal dosing)
# Assay type: in vivo
# applied.conditions: male, CD, plasma, iv; rat, i.v. dosing (i.v. dose 0.1-0.5 per compound)
clearance values, listed per item

{"test.smiles": "COC(=O)c1ccc2c(c1)NC(=O)/C2=C(\\Nc1ccc(C(=O)NOCCN(C)C)cc1)c1ccccc1", "clearance [mL/min/kg]": 285}
{"test.smiles": "COC(=O)c1cc2c(cc1C)/C(=C(/Nc1ccc(C(=O)NOCCN3CCN(C)CC3)cc1)c1ccccc1)C(=O)N2", "clearance [mL/min/kg]": 132}
{"test.smiles": "COC(=O)c1ccc2c(c1)NC(=O)/C2=C(\\Nc1ccc(C(=O)NOCCN2CCN(C)CC2)cc1)c1ccccc1", "clearance [mL/min/kg]": 462}
{"test.smiles": "COC(=O)c1cc2c(cc1C)/C(=C(/Nc1ccc(C(=O)NOCCN(C)C)c(C)c1)c1ccccc1)C(=O)N2", "clearance [mL/min/kg]": 48}

====

# protocol.description: Pharmacokinetic measurements in mice (intravenous and intra-nasal dosing)
# Type: in vivo
# applied.conditions: male, C57BL/6J, lung, iv; mouse, i.v. dosing, 24 h, mean; read-out: lung concentration (nM) at time (h)

{"compound": "COC(=O)c1cc2c(cc1C)/C(=C(/Nc1ccc(C(=O)NOCCN3CCN(C)CC3)cc1)c1ccccc1)C(=O)N2", "concentration at 24 h": "13 nM"}
{"compound": "COC(=O)c1ccc2c(c1)NC(=O)/C2=C(\\Nc1ccc(N(C)C(=O)CN2CCN(C)CC2)cc1)c1ccccc1 [Nintedanib, reference compound]", "concentration at 24 h": "10 nM"}
{"compound": "COC(=O)c1cc2c(cc1C)/C(=C(/Nc1ccc(C(=O)NOCCN(C)C)c(C)c1)c1ccccc1)C(=O)N2", "concentration at 24 h": "20 nM"}

====

Cell viability at 300 nM (%) values, listed per item
# Test system: MRC5 cells
# protocol.description: Cell viability assay in MRC5 cells (MTT)
# applied.conditions: 300 nM

{"compound": "COC(=O)c1ccc2c(c1)NC(=O)/C2=C(\\Nc1ccc(S(=O)(=O)N(C)OCCN2CCN(C)CC2)cc1)c1ccccc1 [Example 25]", "Cell viability at 300 nM (%)": 104.8}
{"compound": "COC(=O)c1ccc2c(c1)NC(=O)/C2=C(\\Nc1ccc(C(=O)N2CCN(C)CCO2)cc1)c1ccccc1 [Example 24]", "Cell viability at 300 nM (%)": 104.7}
{"compound": "COC(=O)c1ccc2c(c1)NC(=O)/C2=C(\\Nc1ccc(N(C)C(=O)CN2CCN(C)CC2)cc1)c1ccccc1 [Nintedanib, reference compound]", "Cell viability at 300 nM (%)": 105.6}
{"compound": "COC(=O)c1ccc2c(c1)NC(=O)/C2=C(\\Nc1ccc(C(=O)N(C)OCCN2CCN(C)CC2)cc1)c1ccccc1 [Example 14]", "Cell viability at 300 nM (%)": 96.9}
{"compound": "COC(=O)c1ccc2c(c1)NC(=O)/C2=C(\\Nc1ccc(C(=O)N2CCO2)cc1)c1ccccc1 [Example 37]", "Cell viability at 300 nM (%)": 98.9}
{"compound": "COC(=O)c1cc2c(cc1C)/C(=C(/Nc1ccc(C(=O)NOCCN3CCN(C)CC3)c(F)c1)c1ccccc1)C(=O)N2 [Example 32]", "Cell viability at 300 nM (%)": 82.3}
{"compound": "COC(=O)c1ccc2c(c1)NC(=O)/C2=C(\\Nc1ccc(S(=O)(=O)NOCCN(C)C)cc1)c1ccccc1 [Example 15]", "Cell viability at 300 nM (%)": 99}
{"compound": "COC(=O)c1cc2c(cc1C)/C(=C(/Nc1ccc(C(=O)NOCCN(C)C)cc1)c1ccccc1)C(=O)N2 [Example 26]", "Cell viability at 300 nM (%)": 111.4}
{"compound": "CCN1CCN(CCONC(=O)c2ccc(N/C(=C3\\C(=O)Nc4cc(C(=O)OC)c(C)cc43)c3ccccc3)cc2)CC1 [Example 36]", "Cell viability at 300 nM (%)": 93}
{"compound": "COC(=O)c1ccc2c(c1)NC(=O)/C2=C(\\Nc1ccc(C(=O)NOCCN2CCC(O)CC2)cc1)c1ccccc1 [Example 40]", "Cell viability at 300 nM (%)": 103.8}
{"compound": "COC(=O)c1cc2c(cc1C)/C(=C(/Nc1ccc(C(=O)N(C)OCCN3C4CCC3CNC4)cc1)c1ccccc1)C(=O)N2 [Example 60]", "Cell viability at 300 nM (%)": 84.4}
{"compound": "COC(=O)c1cc2c(cc1C)/C(=C(/Nc1ccc(C(=O)N(OC)C3CCN(C)CC3)cc1)c1ccccc1)C(=O)N2 [Example 35]", "Cell viability at 300 nM (%)": 77.2}
{"compound": "COC(=O)c1ccc2c(c1)NC(=O)/C2=C(\\Nc1ccc(C(=O)N(C)OCCN(C)C)c(C)c1)c1ccccc1 [Example 22]", "Cell viability at 300 nM (%)": 74.1}
{"compound": "COC(=O)c1ccc2c(c1)NC(=O)/C2=C(\\Nc1ccc(C(=O)NOCCCN(C)C)cc1)c1ccccc1 [Example 19]", "Cell viability at 300 nM (%)": 92.7}

====

# System: MRC5 cells
# protocol.description: Cell viability assay in MRC5 cells (MTT)
# applied.conditions: 300 nM
Cell viability at 300 nM (%) under 90% gets t, anything at or over 90% gets f.

{"molecule": "COC(=O)c1ccc2c(c1)NC(=O)/C2=C(\\Nc1ccc(C(=O)NOCCN2CCC(N(C)C)CC2)cc1)c1ccccc1 [Example 47]", "class.assignment": "f"}
{"molecule": "COC(=O)c1cc2c(cc1C)/C(=C(/Nc1ccc(C(=O)NOCCCN3CCCCC3)cc1)c1ccccc1)C(=O)N2 [Example 53]", "class.assignment": "f"}
{"molecule": "COC(=O)c1cc2c(cc1C)/C(=C(/Nc1ccc(C(=O)NOCCN3CC[C@H](N(C)C)C3)cc1)c1ccccc1)C(=O)N2 [Example 51]", "class.assignment": "t"}
{"molecule": "COC(=O)c1cc2c(cc1C)/C(=C(/Nc1ccc(C(=O)NOCCN3CCC(O)CC3)cc1)c1ccccc1)C(=O)N2 [Example 54]", "class.assignment": "f"}
{"molecule": "COC(=O)c1ccc2c(c1)NC(=O)/C2=C(\\Nc1ccc(C(=O)N(CCN(C)C)OC)cc1)c1ccccc1 [Example 23]", "class.assignment": "t"}

====

# measured.target: UniProt:P09619
# Sequence (P09619 33-1106): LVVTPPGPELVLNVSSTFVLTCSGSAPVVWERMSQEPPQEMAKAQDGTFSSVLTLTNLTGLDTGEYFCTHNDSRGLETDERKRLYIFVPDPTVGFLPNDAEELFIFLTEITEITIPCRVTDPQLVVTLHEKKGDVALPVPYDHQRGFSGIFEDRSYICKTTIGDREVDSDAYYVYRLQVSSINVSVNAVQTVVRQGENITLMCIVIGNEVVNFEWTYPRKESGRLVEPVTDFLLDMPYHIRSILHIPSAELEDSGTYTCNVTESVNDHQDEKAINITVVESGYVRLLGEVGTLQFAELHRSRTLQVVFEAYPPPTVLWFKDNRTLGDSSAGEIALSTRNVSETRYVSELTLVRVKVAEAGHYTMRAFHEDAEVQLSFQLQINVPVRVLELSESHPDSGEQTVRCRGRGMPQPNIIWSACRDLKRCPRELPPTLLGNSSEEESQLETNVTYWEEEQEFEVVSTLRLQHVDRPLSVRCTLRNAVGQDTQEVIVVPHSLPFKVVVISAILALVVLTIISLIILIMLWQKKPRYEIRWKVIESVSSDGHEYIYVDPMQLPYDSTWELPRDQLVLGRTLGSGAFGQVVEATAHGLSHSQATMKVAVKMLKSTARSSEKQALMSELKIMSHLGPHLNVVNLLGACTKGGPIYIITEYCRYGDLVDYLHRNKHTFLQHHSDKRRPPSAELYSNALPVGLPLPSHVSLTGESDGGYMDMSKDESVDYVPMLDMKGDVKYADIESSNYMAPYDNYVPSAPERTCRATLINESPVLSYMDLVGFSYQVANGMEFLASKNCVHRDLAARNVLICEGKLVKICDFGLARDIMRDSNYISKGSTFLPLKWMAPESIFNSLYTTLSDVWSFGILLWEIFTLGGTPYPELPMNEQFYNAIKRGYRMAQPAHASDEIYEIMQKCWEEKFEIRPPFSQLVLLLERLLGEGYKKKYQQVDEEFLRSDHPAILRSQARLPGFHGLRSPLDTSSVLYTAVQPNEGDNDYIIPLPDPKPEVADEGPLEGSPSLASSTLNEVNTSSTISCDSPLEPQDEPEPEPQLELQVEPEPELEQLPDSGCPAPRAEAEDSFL
# protocol.description: PDGF-BB induced phosphorylation of PDGFRβ in fibroblasts (MRC5 cells, HTRF)
# Type: cell-based
# applied.conditions: MRC5 cells; n = 1 unless otherwise indicated; read-out: PDGFBB-induced PDGFRβ phosphorylation in MRC5 cells (IC50)

{"compound": "COC(=O)c1cc2c(cc1C)/C(=C(/Nc1ccc(C(=O)NOCCN3CC[C@H](N(C)C)C3)cc1)c1ccccc1)C(=O)N2 [Example 51]", "measurement.unit": "nM", "IC50": 9.39}
{"compound": "COC(=O)c1cc2c(cc1C)/C(=C(/Nc1ccc(C(=O)N(C)OCCN3CC4CC(C3)N4)cc1)c1ccccc1)C(=O)N2 [Example 66]", "measurement.unit": "nM", "IC50": 15.5}
{"compound": "COC(=O)c1cc2c(cc1C)/C(=C(/Nc1ccc(S(=O)(=O)NOCCN3CCN(C)CC3)cc1)c1ccccc1)C(=O)N2 [Example 2]", "measurement.unit": "nM", "IC50": 39.6}
{"compound": "COC(=O)c1cc2c(cc1C)/C(=C(/Nc1ccc(C(=O)NOCCN3CCCCC3)cc1)c1ccccc1)C(=O)N2 [Example 49]", "measurement.unit": "nM", "IC50": 40.2}
{"compound": "CCN1CCN(CCONC(=O)c2ccc(N/C(=C3\\C(=O)Nc4cc(C(=O)OC)c(C)cc43)c3ccccc3)cc2)CC1 [Example 36]", "measurement.unit": "nM", "IC50": 9.44}
{"compound": "COC(=O)c1cc2c(cc1C)/C(=C(/Nc1ccc(C(=O)NOCCN3CCN(CCO)CC3)cc1)c1ccccc1)C(=O)N2 [Example 7]", "measurement.unit": "nM", "IC50": 10.4}
{"compound": "COC(=O)c1cc2c(cc1C)/C(=C(/Nc1ccc(C(=O)NOCCN3CCN(C)CC3)c(F)c1)c1ccccc1)C(=O)N2 [Example 32]", "measurement.unit": "nM", "IC50": 3.09}

====

# Tested on: MRC5 cells
# protocol.description: Cell viability assay in MRC5 cells (MTT)
# applied.conditions: 1000 nM
Cell viability at 1000 nM (%) values, listed per item

{"test.smiles": "COC(=O)c1ccc2c(c1)NC(=O)/C2=C(\\Nc1ccc(C(=O)N2CCN(C)CCO2)cc1)c1ccccc1", "Cell viability at 1000 nM (%)": 103.1}
{"test.smiles": "COC(=O)c1cc2c(cc1C)/C(=C(/Nc1ccc(S(=O)(=O)N(C)OCCN(C)CCO)cc1)c1ccccc1)C(=O)N2", "Cell viability at 1000 nM (%)": 42}
{"test.smiles": "COC(=O)c1cc2c(cc1C)/C(=C(/Nc1ccc(C(=O)NOCCCN3CCC(OC)CC3)cc1)c1ccccc1)C(=O)N2", "Cell viability at 1000 nM (%)": 92.3}
{"test.smiles": "COC(=O)c1ccc2c(c1)NC(=O)/C2=C(\\Nc1ccc(C(=O)NOCCN2CCN(CCO)CC2)cc1)c1ccccc1", "Cell viability at 1000 nM (%)": 90.8}
